- test-target: T1, recombinant human Nectin4-His protein (human, UniProt Q96NY8 32-349)
- T1 construct: Analyte of the SPR assay; May be the same protein as m12; also called human Nectin-4 ECD; not shown: His tag
- T1 sequence: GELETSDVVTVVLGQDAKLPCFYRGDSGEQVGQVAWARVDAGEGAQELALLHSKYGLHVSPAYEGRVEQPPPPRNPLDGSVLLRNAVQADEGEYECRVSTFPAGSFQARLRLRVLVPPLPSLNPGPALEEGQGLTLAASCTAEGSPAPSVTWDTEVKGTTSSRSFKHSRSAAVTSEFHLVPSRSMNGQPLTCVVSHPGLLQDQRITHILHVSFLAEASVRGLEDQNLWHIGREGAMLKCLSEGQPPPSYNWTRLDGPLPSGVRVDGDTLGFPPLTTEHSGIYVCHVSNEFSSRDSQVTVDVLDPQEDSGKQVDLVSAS
- protocol-notes: SPR (BIAcore 3000), antibody captured by anti-human IgG, Nectin4-His as analyte
Here the recorded pKd is given for each entry.
Interpret pKd as the negative base-10 log of the concentration measured in mol/L.

*Q* Provide measured pKd value, entry: N4_mAb 6 (antibody, human IgG1, V domains shown, Tested as chimera (murine variable regions, human IgG1/kappa constants); not shown: human IgG1 constant region (Uniprot P01857); human Kappa light chain constant region (UniProt P01834)) VH: QVQLQQSGPELVKPGASVRISCKASGYTFTTYYIHWVKQRPGQGLEWIGWIYPGNVNTKYTENFKDKATLTADKSSSTAYMQLSSLTSEDSAVYFCARGLYYFDFWGQGTTLTVSS VL: SIVMTQTPKFLLVSAGDRVTITCKASQSVNNDVAWYQQKPGQSPKLLIYYASNRDTGVPDRFTGSGFGTDFTFTISSVQAEDLAVYFCQQDYSSPYTFGGGTKLEIK
*A* 9.41
